Data provenance is ChEMBL document CHEMBL3988442.

Listing of entries alongside the reported Percent Effect.
Target: Sialic acid-binding Ig-like lectin 9 (Homo sapiens) (UniProt Q9Y336)
Sequence (Q9Y336 whole entry): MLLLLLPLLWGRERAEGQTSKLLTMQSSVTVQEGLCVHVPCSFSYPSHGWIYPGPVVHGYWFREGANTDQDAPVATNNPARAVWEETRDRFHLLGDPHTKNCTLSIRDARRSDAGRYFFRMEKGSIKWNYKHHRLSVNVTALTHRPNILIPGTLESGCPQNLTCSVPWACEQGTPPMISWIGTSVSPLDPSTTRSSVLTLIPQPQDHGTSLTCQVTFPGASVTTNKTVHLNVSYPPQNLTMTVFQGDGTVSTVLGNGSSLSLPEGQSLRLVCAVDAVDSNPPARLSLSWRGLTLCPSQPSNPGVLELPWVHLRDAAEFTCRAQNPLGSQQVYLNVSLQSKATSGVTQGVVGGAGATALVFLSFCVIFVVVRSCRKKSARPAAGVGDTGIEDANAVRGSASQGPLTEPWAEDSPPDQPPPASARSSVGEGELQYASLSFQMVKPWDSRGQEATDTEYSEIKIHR
Assay: Hs-Siglec9 ALPHAscreen SOP 20170721
Set-up: scale not given: direction of the effect not stated beside the values
Details: 10 µM
Record the result as number plus unit.

Worked set:
# molecule, measurement_target, Percent Effect
records = [
    ("CC1c2ncc(CN3CCN(C)CC3)n2CCN1CC1CC1 (centres undefined)", "Sialic acid-binding Ig-like lectin 9 (Homo sapiens) (UniProt Q9Y336)", "5.11%"),
    ("CN(Cc1cnccn1)C(=O)c1ccnc(OC2CCC2)c1", "Sialic acid-binding Ig-like lectin 9 (Homo sapiens) (UniProt Q9Y336)", "4.85%"),
    ("Cn1ccnc1CN1CCCC(Cc2ccccn2)C1 (centres undefined)", "Sialic acid-binding Ig-like lectin 9 (Homo sapiens) (UniProt Q9Y336)", "1.21%"),
    ("CC(C)C(C)NC(=O)Nc1ccc(CS(C)(=O)=O)cc1 (centres undefined)", "Sialic acid-binding Ig-like lectin 9 (Homo sapiens) (UniProt Q9Y336)", "3.79%"),
    ("CC(C)(C)c1n[nH]c(C2CN(C(=O)CCC3CC3)CCO2)n1 (centres undefined)", "Sialic acid-binding Ig-like lectin 9 (Homo sapiens) (UniProt Q9Y336)", "-3.95%"),
]

Measured on Sialic acid-binding Ig-like lectin 9 (Homo sapiens) (UniProt Q9Y336), Cc1ccc(CNC2CCN(CCc3ccncc3)CC2)cc1C has a documented Percent Effect of 7.82%

The molecule Cc1nc(C)n(CC2CCCN2Cc2nc(N)c3ccccc3n2)n1 (centres undefined) on Sialic acid-binding Ig-like lectin 9 (Homo sapiens) (UniProt Q9Y336): Percent Effect was -3.38%

Per the reported Sialic acid-binding Ig-like lectin 9 (Homo sapiens) (UniProt Q9Y336) data, O=C(Nc1cccnc1)[C@H]1CO[C@H]2CCN(c3ncc(F)cn3)C[C@H]2C1 has Percent Effect of 4.5%
